- Procedure text: yeast display, Sf9 membrane polyspecificity reagent, FACS + sequencing; frameworks hold sequencing errors
Measured attribute: polyreactivity (PSR sort gate)

QVQLVESGGGLVQAGGSLRLICAASGFTFPSYAMGWYRQAPGKEREFVAGITKGGGNTYYADSVKGRFTISRDNAKNTVYLQMNSLIPEDTAVYYCAADRSSFYWSHGTVYGYDYWGQGTQVTVSS : low polyreactivity
QVQLVESGGGLVQAGGSLRLSCAASGITFAYYAMGWYRQAPGKERELVAAISSTGSSTYYADSVKGRFTISRDNAKNTVYLQMNSLKPEDTAVYYCNKLQQYTLSEYWGQGTQVTVSS : high polyreactivity
QVQLVESGGGLVQAGGSLRLSCAASGNTFASNAMGWYRQAPGKERELVATISTSGTTYYADSVKGRFTISRDNAKNTVYLQMNSLKPEDTAVYYCARTFKSRRGSRGYYWGQGTQVTVSS : high polyreactivity
QVQLEESGGGLVQAGGSLRLSCAASGFTFHPNAMGWYRQAPGKERELVAAIRYSTGRTYYADSVKGRFTISRDNAKNTVYLQMNSLKPEDTAVYYCAREALQYPGLKYNYWGQGTQVTVSS : low polyreactivity
QVQLVESGGGLVQAGGSLRLSCAASGFIFSVYTMGWYRQAPGKERELVASITWSGGDTYYADSVKGRFTISRDNAKNTVYLQMNSLKPEDTAVYYCNVDAGFHDSYHAWNLRYDYWGQGTQVTVSS : low polyreactivity
QVQLVESGGGLVQAGGSLRLSCASYGSIFSSYFMGWYRQAPGKERELVAAISSGGRTYYADSVKGRFTISRDNAKNTVYIQMKSLKPEDTAVFYCNRVRYRQSAFDYWGQGTQVTVSS : high polyreactivity
QVQLVESGGGLVQAGGSLRLSCAASGSTFYTNPMGWYRQAPGKEREFVAAISGSGSSTYADSVKGRFTISRDNAKNTVYLQMNSLKPEDTAVYYCAADWFILRTDYYWGQGTQVTVSS : low polyreactivity
QVQLVESGGGLVQAGGSLRLSCAASGSIFDDYAMGWYRQAPGKERELVAAISWSGGSTYYADSVKGRFTISRDNAKNTVYLQINSLKPEDTAVYYCAKESGWVGAIHYDYWGQGTQVTVSS : low polyreactivity

Field request: polyreactivity (PSR sort gate) | item: QVQLVESGGGLVQAGGSLRLSCAASGLIFYDNMGWYRQAPGKERELVAAISSSGGSTSYADSVKGRFTISRDNAKNTVYLQMNSLKPVDTAVYYCAADSYPAYLGFVGFDYWGQGTQVTVSS
low polyreactivity

# iterate: QVQLVESGGGLVQAGGSLRLSSAASGFTFRRYAMGWYRQAPGKERELVAAITNSAGSTYYSDSVKGRFTISRDNAKNTVYLQKNSLKPEDTAVYYCVALRSAGAYDYWGQGTQVTVSS
low polyreactivity

# iterate: QVQLVESGGGLVQAGGSLRLSCAASGFTFYYYAMGWYRQAPGKERELVATIRWSGGSTYYADSVKGRFTISRDNAKNTVYLQMNSLKPEDTAVYYCNATPPQYVKYPSYKYDYWGQGTQVTVSS
low polyreactivity

# iterate: QVQLVESGGGLVQAGGSLRLSCAASGSTFHRNAMGWYRQAPGKERELVAAITSGGSTNYADSVKGRFTISRDNAKNTVYLQMNSLKPEDTAVYYCAKDYRHYNRGWYDYWGQGTQVTVSS
low polyreactivity

# iterate: QVQLVESGGGLVHAGGSLRLSCAASGLIFRAYAMGWYRQAPGKERELVAAITSSSGSTYYADSVKGRFTISRDIAKNTVYLEMNSLKPEDTAVSYCNAYSTFGWYDYWGQGTQVTVSS
low polyreactivity

# iterate: QVQLVESGGGLVQAGGSLRLSCAASGRTFAPYVMGWYRQAPGKERELVAAITLSGDSTDYADSVKGRFTISRDNAKNTVYLQMNSLKPEDTAVYYCNVEYLSYTSYFHYYEYDYWGQGSQVTVSS
low polyreactivity

# iterate: QVQLVESGGGLVQAGGSLRLSCAASGRIFSRYAMGWDRQAPGKERELVAAINNGGSTYYADSVKGRFTISRDNAKNTVYLQMNSLKPEDTAVYYCAKLWWSNFKPVEYWGQGTQVTVSS
low polyreactivity

# iterate: QVQLVESGGGLVQAGGSLRLSCAASGRIFGYNAMGWYRQAPGKERELVAVITYSGGSTYYADSVKGRFTISRDNAKNTVYLQMNSLKPEDTAVYYCNARPIDRYSGSGKQWPDYYYWGQGTQVTVSS
low polyreactivity

# iterate: QVQLVESGGGLVQAGGSLRLSCAASGRTFVKNAMGWYRLAPGKERELVAAISRRGGSTYYADSVKGRFTISRDNAKNTVYLQMNSRKPEDTAVYYCAAPYTRPTTGYDYWGQGTQVTVSS
high polyreactivity

# iterate: QVQLVESGGGLVQAGGSLRLSCAASGFIFARYAMGWYRQAPGKVRELVARITTGDSTYYADSVKGRFTISRDNAKNTVYLQMNSLKPEDTAVYYCAADDNVSVVGLYYWGQGTQVTVSS
low polyreactivity

# iterate: QVQLQESGGGLVQAGGSLRLSCAASGYISSWYPMGWYRQAPGKEREFVATIAPRATTYYADSVKGRFTISRDYAKNTVYLQMNSLKPEDTAVYYCAAGPENNDVYSYWGQGTQVTVSS
low polyreactivity

# iterate: QVQLVESGGGLVQAGGSLRLSCAASGRIFNQYCMGWYRQAPGKERELVAAIRSGDSTNYADSVKGRFTISRDNAKNTVYLQMNSLKPEDTAVYYCARDRPGDYAGYDYWGQGTQVTVSS
low polyreactivity

# iterate: QVQLVESGGGLVQAGGSLRLSCAASGRIFGGYAMGWYRQAPGKERELVAVITDGGSTNYADSVKGRFTISRDNAKNTVYLQMNSLKPEDTAVYYCAADDRIYPRGYDKMDYWGQGTQVTVSS
low polyreactivity

###

- Procedure text: yeast display, Sf9 membrane polyspecificity reagent, FACS + sequencing; frameworks hold sequencing errors
Measured attribute: polyreactivity (PSR sort gate)

QVQLVESGGGLVQAGGSLRLSCAASGSIFWTKAMGWYRQAPGKERELVARITYSGGSTYYADSVKGRFTISRDNAKNTVYLQMNSLKPEDTAVYYCNARTHGWPYSRYYYWGQGTQVTVSS : high polyreactivity
QVQLVESGGGLVQAGGSLRLSCAASGRIFVRYAMGWSRQAPGKEREMVAAISSSGGRTYYADSVKGRFTISRDNAKNTVYLQMNSLNAEDTAVYYCAARWVQYGVRYDYWGQGTQVTVSS : high polyreactivity

###

- Procedure text: yeast display, Sf9 membrane polyspecificity reagent, FACS + sequencing; frameworks hold sequencing errors
Measured attribute: polyreactivity (PSR sort gate)

HVQVVESGGGLVQEGGSLRLICAASGYLFAYYAMGWFRQAPGKERELVAPIRSGGSTNYADSVKGRFTISRDNAKNTVYLQMNSLKPEDTAVYYCAKGDRRWTLCRPDYDYWGQGTQVTVAS : low polyreactivity
QVQLVESGGGLFQAGGSLRLSCAASGLIFGYYDMGWYRQAPGKERELVASISRNGGCTYYADSVKGRFTISRDNAKNTVYLQMNRLKTEDTAVYYCARTGPWARYSHGLYKSDYWGQGTQVTVAS : high polyreactivity
QVQLVESGGGLVQAGGSLRLSCAASGFTFSSYALGWSRQAPGKERELVAAISTRGGSTYYADSVKGRFTISRDNAKNTVYLQRNSLKPEDTADYYCATGGRGGRRYEYWGQGTQVTVSS : low polyreactivity
QVQLVESGGGLVQAGGSLRLSCAASGSIFYRYTMGWYRQARGKERELVAAISSDGGSTYYADSVKGRFTISRDNAKKTVYLQMNSLKPEDTAVYYCAAGQDGHSDWGQGTQVTVSS : low polyreactivity
QVQLVESGGGLVQAGGSLRLSCAASGSLFYVYAMGWYRQAPGKERELVAAITNYADSVKGRFTISRDNAKNTVYLQMNSLKPEDTAVYYCAADWWRVEMDYWGQGSQVTVSS : low polyreactivity

Field request: polyreactivity (PSR sort gate) | item: QVQLVESGGGLVQAGGSLRLSCAASGSTLAVYAKGWSRQAPGKERELVAVIDRGGSTYYADSVKGRFTISRDNAKNTVYLQLNCLKPEDTAVYFCNARRVKGYGYWGQGTQVTVSS
high polyreactivity

# iterate: QVQLVETVGGLVQAGGSLRLSCAASGSIFTHYAMGWYREAPGKERELVAAITWSGGSTYYADSVKGRFTISRDNAKNTVYLQMNSLIPEDTAVYYCNVAWVGVSLVYGPFEYDYWGQGTQVTVSS
high polyreactivity

# iterate: QVQLVESGGGLVQAGGSLRLSCAASGRIFDTYAMGWYSQAPGKERELVASISIDGSTYYADSVKGRFTISRDNAKNTVYLQMNSLKPEDTAVYYCNADGRYYTVRFEYWGQGTQVTVSS
low polyreactivity

# iterate: QVQLVDSCGGLVQAGGSLRLSCAASGSISYYYAMGWYRQAPGKERELVAAITRTGTTNYADSVKWRFTISRDNAKNTVFLQMNSLKPEDTAVYYCAKRSTGRLQSYNYWGQGTQVTVSS
low polyreactivity

# iterate: QVHLVESGGGLVQAGGSLRLSCAASGITFQRYAMGWYREAPGKERELVASISTNGGTTYYADSVKGRFTISRHNAKNTVYLQMNSLKPEDTAVYYCNAESGYVYYIRYNYWGQGTQVTVSS
high polyreactivity

# iterate: QVQLVESGGGLVQAGGSLRLSCAASGRIFRPYAMGWYRQAPGKERELVAAITQSGGITSYADSVKGRFTISRDNAKNSVYLQMNSLKPEDTAVYYCATTSRYTRSHYDWYDYWGQGTQVTVSS
low polyreactivity
